Reference for the values: patent US6740657B2

# Test system: platelet aggregation stimulated by thrombin (gel-filtered platelets)
# Test Method Notes: In vitro inhibition of thrombin-induced gel-filtered platelet aggregation
# Format: cell-based, Human
# Test Settings: Homo sapiens, Platelet, agonist thrombin, % inhibition @ 50 μM, read-out: GFP Aggr. % Inhibition, Thr
Reported Metric: inhibition at 50 µM (%)
Numbers only, in %.

In the examples that follow, each entry is paired with its recorded inhibition at 50 µM.
CN(C)Cc1cn(Cc2c(Cl)cccc2Cl)c2ccc3nc(N(C)C)nc(N)c3c12 = 27
CN(C)Cc1cn(Cc2c(Cl)cccc2Cl)c2ccc3nc(NC4CC4)ncc3c12 = 30
COc1nc(Cl)nc2ccc3c(c(CN(C)C)cn3Cc3c(Cl)cccc3Cl)c12 = 40

Under platelet aggregation stimulated by thrombin (gel-filtered platelets): inhibition at 50 µM value of CN(C)Cc1cn(Cc2c(Cl)cccc2Cl)c2ccc3nc(Cl)nc(N)c3c12 ?
14

* * *

# Tested on: platelet aggregation stimulated by TRAP-6 (gel-filtered platelets)
# Test Method Notes: In vitro inhibition of TRAP-6-induced gel-filtered platelet aggregation
# Assay type: cell-based, Human
# Test Settings: Homo sapiens, Platelet, agonist TRAP-6, read-out: GFP Aggr. IC50 (μM), TRAP-6
Reported Metric: IC50 (µM)
One number for each entry, in µM.

Under platelet aggregation stimulated by TRAP-6 (gel-filtered platelets): IC50 value of COc1nc(Cl)nc2ccc3c(c(CN(C)C)cn3Cc3c(Cl)cccc3Cl)c12 ?
31
